# Test system: HL-60(TB) leukemia
# PROTOCOL_DESCRIPTION: NCI-60 one-dose screen, 48 h
# CONDITION: 10 µM unless noted
Compounds without any hit were thinned out: in the full panel of roughly 83,000, 20% have a hit. The source made the active and inactive calls. Rule for the calls: active = growth percent below 10; inactive = the rest.
Labels: True for active, False for inactive

MOLECULE	CLASS_NAME
CC[CH2][Pb]([CH2]CC)([CH2]CC)[O]C(=O)C(F)(F)F	True
CCCNNC(=O)/C=C/c1ccc(CNCCc2c(C)[nH]c3ccccc23)cc1	False
Cc1ccc(Nc2ncnc3c2sc2ncccc23)cc1	False
Ic1ccc(Nc2nc3nonc3nc2Nc2ccc(I)cc2)cc1	True
Cc1ccc(-c2csc(N(C(=O)N3CCN(c4cc5c(cc4F)c(=O)c(C(=O)O)cn5C4CC4)CC3)c3ccccc3)n2)cc1	True
O=c1[nH]ccc2c(S(=O)(=O)N3CCCNCC3)cccc12	False
COc1cc(NC(=O)C2=C(N3CCOCC3)/C(=C/c3ccc(Cl)cc3)CC2)cc(OC)c1OC	False
Cc1ccc(OC2=C(C#N)C(=N)N3C(=NN2)Sc2c(C)ccc(C)c23)cc1	False
CCOc1nc(-c2ccccc2)cc2c(O)c(C(=O)N/N=C/c3ccc(O)cc3O)[nH]c(=O)c12	False
CCN1CCN(CCNc2nccc(-c3c(-c4ccc(F)c(OC)c4)nc4sccn34)n2)S1(=O)=O	False
O=c1[nH]c(-c2ccccn2)nc2sc3c(c12)CCCCC3	False
COc1ccc2[nH]c(O)c(/C=c3/cc4c(c(-c5ccc(F)cc5)n3)=Nc3ccccc3-4)c2c1	False
Clc1ccc(Sc2nc(NC3CC3)nc(Sc3ccc(Cl)cc3)n2)cc1	False
CC(=O)/C(=C/c1ccc([N+](=O)[O-])cc1)C(=O)c1ccccc1	False
O=C1C(Cl)=C(Nc2ccccc2)C(=O)c2ccccc21	True
C=CCN1C(=O)/C(=c2\sc3n(c2=O)NC2C(N=3)N(CC)C(=O)N2CC)c2ccccc21 (stereo unspecified)	True
Cc1ccc2c(c1)C(=O)/C(=C/c1cccc(OCC(=O)c3ccc(Cl)cc3)c1)CS2	False
Cn1c2ccc(Br)cc2c2c3c(c4c5ccccc5[nH]c4c21)C(=O)N(O)C3=O	True
COc1cc2c(cc1OCCCOc1cc3c(cc1OC)C(=O)N1CCC[C@H]1C=N3)C=CC(C)(C)O2	False
O=C1CN2CCC1C/C2=C\c1ccnc2c(Cl)cccc12 (stereo unspecified)	False
O=c1ccc(N=Nc2ccccc2)ccc1Cl	False

###

// reported growth for each item listed
# Test system: HL-60(TB) leukemia
# PROTOCOL_DESCRIPTION: NCI-60 one-dose screen, 48 h (100 = growth as untreated, 0 = no growth, -100 = all killed)
# CONDITION: 10 µM unless noted
# Method: Growth inhibition of the HL-60(TB) human tumor cell line is measured as a screen for anti-cancer activity. Cells are grown in 96 well plates and exposed to the test compound for 48 hours. Compounds are tested at a single concentration, which is 10^-5 M for most compounds. The reported endpoint is percent growth (GI% or GIPRCNT), where numbers from 0 - 100% represent growth inhibition, and numbers from -100% - 0 represent cell death. For example, a value of 40 represents 60% growth inhibition. […]
This is part of a sample that, as a whole, favours compounds with a hit. Of some 83,000 tested, about 20% had one in any assay. Calls of active or inactive are those of the source. Rule for the calls: active = growth percent below 10; inactive = the rest.

COMPOUND	EXPERIMENTAL_SYSTEM	growth
Cc1nc2ccccc2c(/C=C/c2ccccc2)c1C(=O)/C=C/c1ccc(C(F)(F)F)cc1	HL-60(TB) leukemia	-26.9% (active)
O=C1C(=O)c2c(nc3ncccn23)-c2ccccc21	HL-60(TB) leukemia	-51% (active)
COc1ccc(-c2nn(-c3cccc(Cl)c3)cc2/C=C2\NC(=S)N(c3ccc(Cl)cc3)C2=O)cc1	HL-60(TB) leukemia	24.9% (inactive)
CC(=O)C1CC(C)CCC1C(C)C (stereo not given)	HL-60(TB) leukemia	58.7% (inactive)
N#Cc1c(-c2ccc(F)cc2)cc(-c2cccc(Cl)c2)[nH]c1=O	HL-60(TB) leukemia	84.9% (inactive)
O=C1/C(=C/c2ccc(O)cc2)COc2ccc(-c3ccccc3)cc21	HL-60(TB) leukemia	-51% (active)
CCCCCCCCCCCCCCCC1=NCC[N+]1(CCO)CCO	HL-60(TB) leukemia	44.9% (inactive)
Cc1nn(-c2ccc(Cl)cc2)c(=O)n1CCN1CCOCC1	HL-60(TB) leukemia	105% (inactive)
CCCCCCc1cc2cc(-c3nc4ccccc4[nH]3)c(=Nc3ccccc3C)oc2cc1O	HL-60(TB) leukemia	12.2% (inactive)
CC(=O)O[C@H]1C[C@@]2(C)[C@@H](C[C@@H](O)[C@H]3[C@@]4(C)CC[C@H](N5CCCC5)[C@@H](C)[C@@H]4CC[C@@]32C)/C1=C(\CCC=C(C)C)C(=O)O	HL-60(TB) leukemia	-74.3% (active)
NCc1cn2cc(Cl)sc2n1	HL-60(TB) leukemia	129% (inactive)
Cc1cnc([C@]23CC[C@@H](C)[C@H](C)[C@H]2C2=CC[C@@H]4[C@@]5(C)Cc6c([nH]c7ccccc67)C(C)(C)[C@@H]5CC[C@@]4(C)[C@]2(C)CC3)o1	HL-60(TB) leukemia	38.2% [100 µM] (inactive)
COc1cc(-c2nc(C(=O)Nc3ccc(C)cc3)nn2-c2ccc(F)c(F)c2)cc(OC)c1OC	HL-60(TB) leukemia	100% (inactive)
COC(=O)CCc1n(Cc2ccc3ccccc3c2)c2ccccc2[n+]1Cc1ccc2ccccc2c1	HL-60(TB) leukemia	-49.1% (active)
O=C1NC(=O)/C(=C/c2ccc3nccc(-c4ccncc4)c3c2)S1	HL-60(TB) leukemia	-32.1% (active)
O=c1nc2sc3nc4ccccc4cc3cc-2s1	HL-60(TB) leukemia	99% (inactive)
CCCCC#Cc1c(/C=C(\CCCC)SCC)n(C)c(=O)[nH]c1=O	HL-60(TB) leukemia	92.8% (inactive)
COc1ccc(C(C)C=O)cc1 (stereo not given)	HL-60(TB) leukemia	96.9% (inactive)
O=C(CN1CCOCC1)Nc1ccc(Cn2nnc3c2C(=O)c2nnn(Cc4ccc(NC(=O)CN5CCOCC5)cc4)c2C3=O)cc1	HL-60(TB) leukemia	-39.1% (active)
CC(=O)NNC(=S)/N=C\C(C(=O)c1ccccc1)=C(/O)c1ccccc1	HL-60(TB) leukemia	103% (inactive)
